The measured values listed here are drawn from patent US20110250211A1.

# Assay System: T1, murine glial fibrillary acidic protein (GFAP) (mouse, UniProt P03995 1-430)
# T1 construct: Endogenous protein of brain extracts, brain sections or live brain; also called GFAP in murine brain extracts; GFAP in mouse astrocytes
# T1 sequence (P03995 whole entry): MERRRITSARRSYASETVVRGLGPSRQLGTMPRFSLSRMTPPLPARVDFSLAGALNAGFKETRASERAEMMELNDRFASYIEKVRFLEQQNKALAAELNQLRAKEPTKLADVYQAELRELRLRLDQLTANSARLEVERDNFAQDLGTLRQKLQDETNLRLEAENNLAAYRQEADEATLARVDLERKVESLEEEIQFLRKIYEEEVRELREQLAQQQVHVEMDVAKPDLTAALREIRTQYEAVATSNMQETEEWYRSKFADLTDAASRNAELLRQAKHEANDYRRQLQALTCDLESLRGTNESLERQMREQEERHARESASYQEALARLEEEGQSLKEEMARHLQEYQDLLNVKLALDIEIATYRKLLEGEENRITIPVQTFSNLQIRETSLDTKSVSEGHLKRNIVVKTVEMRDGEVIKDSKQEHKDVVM
# Assay Procedure: Western blot of murine brain extracts
Outcome Measure: binding result

IN: Reported binding result, binder VHH-B8 (VHH, One polypeptide entry) VHH: DVQLQVSGGGSVQPGGSLRLSCAAPGFTFSNYAMYWLRQAPGKGIEWVSRIGPGGSHTEYADSVKGRFAISRDNAKNTLSLQMNSLKPEDTAAYYCAITQQGSGRGRGTQVTVSSAAASLSTELEFGSELIPISMADVQLQVSGGGSVQPGGSLRLSCAASGFTFSNYAMYWLRQAPGKGIEWVSRIGPGGSHTEYADSVKGRFTISRDNAKNTLSLQMNSLKPEDTAVYYCAITQQGSGRGRGTQVTVSSAAALEHHHHHH : ____
OUT: binds

IN: Similarly, VHH-A10 (VHH, Alpaca VHH with C-terminal His tag, expressed in the E. coli periplasm from pET22; also called anti-GFAP VHH-A10; VHH-His) VHH: DVQLRASGGGLVQPGGSLRLSCAASGFTFSNYAMYWLRQAPGKGIEWVSRIGPGGSHTEYADSVKGRFTISRDNAKNTLSLQMNSLKPEDTAVYYCAITQQGSGRGQETQVTVSSAAALEHHHHHH ?
OUT: binds

IN: Similarly, VHH-E3 (VHH, Alpaca VHH with C-terminal His tag; also called anti-GFAP VHH-E3) VHH: DVQLQVSGGGSVQPGGSLRLSCAAPGFTFSNYAMYWLRQAPGKGIEWVSRIGPGGSHTEYADSVKGRFAISRDNAKNTLSLQMNSLKPEDTAAYYCAITQQGSGRGRGTQVTVSS ?
OUT: binds
